- System: MM231
- Experiment notes: Cytotoxicity assay (MTT), MM231
- Type: cell-based, human
- Cond: Homo sapiens, MM231 (breast cancer), 48 h exposure
Endpoint label: IC50

Reported IC50 (MM231) for entry CC1=C[C@H](O)[C@@H]2[C@@]3(C)C=CC(=O)C(C)(C)[C@@H]3CC[C@@]2(C)[C@]12Cc1c(c(C)c(C)oc1=O)O2 is > 40 µM

Reported IC50 (MM231) for entry CC1=CC(O)C2C3(C)C(O)CC(=O)C(C)(C)C3CCC2(C)C12Cc1c(c(C)c(C)oc1=O)O2 (stereo not drawn) is > 40 µM

Reported IC50 (MM231) for entry CC1=C[C@H](O)[C@@H]2[C@@]3(C)CCC(=O)C(C)(C)[C@@H]3CC[C@@]2(C)[C@]12Cc1c(c(C)c(C)oc1=O)O2 is > 40 µM

Reported IC50 (MM231) for entry CC1=CC(=O)C[C@@H]2O[C@@H]3C=C(C)[C@@]45Oc6c(C)c(C)oc(=O)c6[C@@H]4O[C@H](O)[C@]54CC[C@@H]1[C@@]2(C)[C@@H]34 is > 40 µM

Reported IC50 (MM231) for entry C=CC(C)(C)C12CC3C(=O)NC(C(C)C)C(=O)N3C1N(C(C)=O)c1ccccc12 (stereo not drawn) is > 40 µM

Reported IC50 (MM231) for entry CC(=O)O[C@H]1C(=O)[C@@]2(C)[C@H]([C@H](OC(=O)c3ccccc3)[C@]3(O)C[C@H](OC(=O)[C@H](O)[C@@H](NC(=O)c4ccccc4)c4ccccc4)C(C)=C1C3(C)C)[C@]1(OC(C)=O)CO[C@@H]1C[C@@H]2O [Paclitaxel, paclitaxel, reference compound] is < 0.008 µM
